target: Estrogen receptor (Homo sapiens) (UniProt P03372); experiment: ATG_ERa_TRANS: Attagene TRANS-FACTORIAL HepG2 Assay for human Estrogen Receptor alpha (ERa) (AID 2282970); details: HepG2 Attagene TRANS ERa GAL4 reporter, mRNA
Sequence (P03372 whole entry, looked up, the tested form may be a part): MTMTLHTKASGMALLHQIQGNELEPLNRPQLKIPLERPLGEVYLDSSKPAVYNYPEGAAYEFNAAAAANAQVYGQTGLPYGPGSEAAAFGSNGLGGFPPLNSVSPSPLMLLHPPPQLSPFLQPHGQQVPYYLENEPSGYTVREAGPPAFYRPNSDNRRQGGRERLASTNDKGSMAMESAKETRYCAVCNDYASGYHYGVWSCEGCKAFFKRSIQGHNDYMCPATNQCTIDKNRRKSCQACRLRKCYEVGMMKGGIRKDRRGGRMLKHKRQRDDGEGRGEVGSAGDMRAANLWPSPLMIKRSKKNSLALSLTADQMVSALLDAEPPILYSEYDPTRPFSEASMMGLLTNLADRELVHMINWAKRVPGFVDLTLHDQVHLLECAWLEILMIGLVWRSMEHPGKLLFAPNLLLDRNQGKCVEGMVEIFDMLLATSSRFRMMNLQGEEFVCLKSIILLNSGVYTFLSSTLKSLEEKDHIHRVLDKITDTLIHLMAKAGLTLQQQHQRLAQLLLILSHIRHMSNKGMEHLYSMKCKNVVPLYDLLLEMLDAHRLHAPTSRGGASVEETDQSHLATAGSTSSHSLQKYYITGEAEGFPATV
Records with an inconclusive call do not appear. The source made the active and inactive calls. The calls were made as follows: active = hit-call score of the fitted dose curve at least 0.9, where 1 is the maximum; inconclusive = response in the unintended direction; inactive = score below 0.9.
Use one of these outcomes when replying: t for active, f for inactive

Please review the entries below; each comes with its answer.
* FC(F)(F)C(F)(F)CNCC(F)(F)C(F)(F)F | f
* Cc1ccc(S(=O)(=O)OCC(F)(F)C(F)(F)C(F)(F)C(F)(F)C(F)(F)C(F)F)cc1 | f
* O=C(O)C(F)(OC(F)(F)C(F)(OC(F)(F)C(F)(OC(F)(F)C(F)(F)C(F)(F)F)C(F)(F)F)C(F)(F)F)C(F)(F)F (centres undefined) | f
* Cc1ccc(S(=O)(=O)NCl)cc1 | f
* O=C(C=Cc1ccccc1)OCC=Cc1ccccc1 | t

Incoming: What is the recorded call for this compound in the test? Nc1ccc([N+](=O)[O-])cc1O
Outgoing: f

----------
Test: ATG_TGFb_CIS: Attagene CIS-FACTORIAL HepG2 Assay for human Transforming Growth Factor (TGF) (AID 2282967)
Details: HepG2 Attagene CIS TGFb reporter, mRNA transcription; actives raise or lower the signal
Method: ATG_CIS is a cell-based, multiplexed-readout assay that uses HepG2, a human liver cell line, with measurements taken at 24 hours after chemical dosing in a 24-well plate.ATG_TGFb_CIS is one of 52 assay component(s) measured or calculated from the ATG_CIS assay. […] This assay endpoint, ATG_TGFb_CIS, was analyzed with bidirectional fitting relative to DMSO as the negative control and baseline of activity. […]
The source made the active and inactive calls. The calls were made as follows: active = hit-call score of the fitted dose curve at least 0.9, where 1 is the maximum; inactive = score below 0.9.
Lab note: assign the record to one of active, inactive

• OCCCC(F)(F)C(F)(F)C(F)(F)C(F)(F)C(F)(F)C(F)(F)C(F)(F)F = inactive

Incoming: Give the logged outcome of this assay for the following molecule: CC(Cc1ccc(O)c(O)c1)C(C)Cc1ccc(O)c(O)c1 (centres undefined)
Outgoing: inactive

Incoming: // outcome(item) with item = FC(F)(F)C(F)(F)C(F)(F)C(F)(F)C(F)(F)C(F)(F)C(F)(F)Br
Outgoing: inactive

----------
target: Estrogen receptor beta (Homo sapiens) (UniProt Q92731); assay: OT_ER_ERbERb_1440: Odyssey Thera (OT) 24-hour HEK293T Protein-Complementation Assay for Estrogen Receptor-beta/-beta Homodimer (AID 2283380);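 also: fluorescence gain from ER beta LBD homodimer complementation read by laser scanning cytometry; scored as signal increase over DMSO baseline for both agonists and antagonists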
Sequence (Q92731 whole entry, looked up, the tested form may be a part): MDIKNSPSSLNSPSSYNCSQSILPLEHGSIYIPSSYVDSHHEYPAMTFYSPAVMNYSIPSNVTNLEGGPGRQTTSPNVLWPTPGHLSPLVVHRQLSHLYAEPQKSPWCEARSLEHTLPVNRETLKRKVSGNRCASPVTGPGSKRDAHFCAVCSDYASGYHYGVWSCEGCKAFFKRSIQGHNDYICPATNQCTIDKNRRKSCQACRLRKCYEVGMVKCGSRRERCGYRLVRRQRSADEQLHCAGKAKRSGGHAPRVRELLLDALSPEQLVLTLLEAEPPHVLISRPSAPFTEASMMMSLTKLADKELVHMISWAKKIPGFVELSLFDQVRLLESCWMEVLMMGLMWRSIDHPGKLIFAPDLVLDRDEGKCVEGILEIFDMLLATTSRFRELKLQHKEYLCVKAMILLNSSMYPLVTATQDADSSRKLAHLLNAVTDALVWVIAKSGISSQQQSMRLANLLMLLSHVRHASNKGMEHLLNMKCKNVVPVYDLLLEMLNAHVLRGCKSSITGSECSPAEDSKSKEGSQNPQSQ
The source made the active and inactive calls. The calls were made as follows: active = hit-call score of the fitted dose curve at least 0.9, where 1 is the maximum; inconclusive = response in the unintended direction; inactive = score below 0.9.
Property Measured: AC50

- COC(=O)C1CCC(C(=O)OC)CC1 (centres undefined): inactive
- C(=C(c1ccccc1)c1ccccc1)c1ccccc1: 1590 nM (active)
- [Co]: inactive
- CC/C=C\CCOC(C)=O: inactive

----------
assay: ATG_GRE_CIS: Attagene CIS-FACTORIAL HepG2 Assay for human Glucocorticoid Response Elements (GRE) (AID 2282947); conditions: HepG2 GRE cis-reporter, Attagene multiplex mRNA; actives raise or lower the signal
Calls of active or inactive are those of the source. Rule for the calls: active = hit-call score of the fitted dose curve at least 0.9, where 1 is the maximum; inactive = score below 0.9.
Property Measured: outcome

* O=C(O)C(F)(F)C(F)(F)C(F)(F)C(F)(F)F | inactive
* NC(=O)C(F)(F)C(F)(F)C(F)(F)C(F)(F)F | inactive
* [Co] | inactive
